- system.under.test: HNF-4α (Rattus norvegicus)
- Construct: GST-HNF-4α(LBD) fusion protein consisting of amino acids 96-455 of wild type HNF-4α fused to GST; fused on or other part: Glutathione-S-transferase (GST) at the N-terminus of the LBD construct; 6-histidine tag on the full-length construct
- Sequence (P22449 105-464 isoform P22449-2 limits assumed): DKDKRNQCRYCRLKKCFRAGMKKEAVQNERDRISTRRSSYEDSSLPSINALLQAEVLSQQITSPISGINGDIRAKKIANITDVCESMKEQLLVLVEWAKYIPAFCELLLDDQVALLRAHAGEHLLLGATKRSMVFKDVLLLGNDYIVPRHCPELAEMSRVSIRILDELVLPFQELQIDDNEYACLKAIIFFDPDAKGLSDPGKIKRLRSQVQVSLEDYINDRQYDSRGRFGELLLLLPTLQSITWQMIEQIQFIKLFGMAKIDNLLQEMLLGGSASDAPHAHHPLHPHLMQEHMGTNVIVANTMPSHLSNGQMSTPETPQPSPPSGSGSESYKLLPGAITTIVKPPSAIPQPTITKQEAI
- assay.notes: Ligand binding assay with [3H]palmitoyl(16:0)-CoA on recombinant GST-HNF-4α(LBD) or His-HNF-4α

compound: CC(C)(Oc1ccc(CCNC(=O)c2ccc(Cl)cc2)cc1)C(=O)O [Bezafibrate, reference compound]
EC50 / µM: 90

====

- system.under.test: HNF-4α (Rattus norvegicus)
- assay.notes: Gel mobility shift assay: His-HNF-4α binding to C3P apo CIII promoter oligonucleotide
- Type: biochemical
- Design: The full length HNF-4α1 cDNA cloned into 6His-pET11d vector was expressed in E.coli BL21 (DE3)plysS; 6His; made in house; host or cells: E. coli BL21 (DE3)plysS
- cond: summary statement of Example 4

smiles: CC/C=C\C/C=C\C/C=C\CCCCCCCC(=O)SCCNC(=O)CCNC(=O)[C@H](O)C(C)(C)COP(=O)(O)OP(=O)(O)OC[C@H]1O[C@@H](n2cnc3c(N)ncnc32)[C@H](O)[C@@H]1OP(=O)(O)O
direct effect on HNF-4α (summary): direct inhibition

smiles: CC/C=C\C/C=C\C/C=C\C/C=C\C/C=C\C/C=C\CCC(=O)SCCNC(=O)CCNC(=O)[C@H](O)C(C)(C)COP(=O)(O)OP(=O)(O)OC[C@H]1O[C@@H](n2cnc3c(N)ncnc32)[C@H](O)[C@@H]1OP(=O)(O)O
direct effect on HNF-4α (summary): direct inhibition

smiles: CC/C=C\C/C=C\C/C=C\C/C=C\C/C=C\CCCC(=O)SCCNC(=O)CCNC(=O)[C@H](O)C(C)(C)COP(=O)(O)OP(=O)(O)OC[C@H]1O[C@@H](n2cnc3c(N)ncnc32)[C@H](O)[C@@H]1OP(=O)(O)O
direct effect on HNF-4α (summary): direct inhibition

====

- system.under.test: HNF-4α (Rattus norvegicus, UniProt P22449)
- Sequence (P22449 1-464 isoform P22449-2): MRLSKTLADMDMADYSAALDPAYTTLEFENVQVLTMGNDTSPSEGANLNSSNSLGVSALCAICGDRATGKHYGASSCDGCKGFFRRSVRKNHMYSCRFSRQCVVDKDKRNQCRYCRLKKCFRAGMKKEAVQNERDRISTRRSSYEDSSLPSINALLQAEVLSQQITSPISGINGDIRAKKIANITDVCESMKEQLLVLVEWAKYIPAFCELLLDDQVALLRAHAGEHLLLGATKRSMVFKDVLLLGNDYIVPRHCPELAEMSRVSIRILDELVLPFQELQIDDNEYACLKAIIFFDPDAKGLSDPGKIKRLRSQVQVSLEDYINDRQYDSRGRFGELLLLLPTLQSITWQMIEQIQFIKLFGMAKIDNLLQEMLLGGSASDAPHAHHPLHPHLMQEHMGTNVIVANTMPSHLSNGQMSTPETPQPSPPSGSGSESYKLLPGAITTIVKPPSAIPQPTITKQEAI
- assay.notes: Transfection assay: COS-7 cells cotransfected with (C3P)3-TK-CAT reporter and pSG5-HNF-4α
- Type: cell-based
- Design: expressed in transfected cells; host or cells: COS-7
- cond: transfection assays, added to culture medium
measurement.kind: inhibition of HNF-4α transcriptional activity, effectiveness in words

compound: O=C(O)CCCCCCCCCCCCCCCCCO [18-hydroxy-octadecanoic acid]
observed.result: effective
//
compound: CC(C)(CCCCCCCCCCCCC(C)(C)C(=O)O)C(=O)O
observed.result: Highly effective
//
compound: CC(C)(CCCCCCCCCCCCCO)CC(=O)O
observed.result: effective
//
compound: CC(C)(CCCCCCCCCCCCCCC(C)(C)C(=O)O)C(=O)O
observed.result: Highly effective
//
compound: CC(C)(CCCCCCCCCCCCCCO)CCC(=O)O
observed.result: effective
//
compound: CC(C)(CCCCCCCCC(C)(C)CCC(=O)O)CCC(=O)O
observed.result: Highly effective
//
compound: CC(C)(CCCCCCCCCCC(C)(C)CCC(=O)O)CCC(=O)O
observed.result: Highly effective
//
compound: CC(C)(CCCCCCCCCCC(C)(C)CC(=O)O)CC(=O)O
observed.result: Highly effective
//
compound: CC(C)(CCCCCCCCCCCCCCCCO)C(=O)O
observed.result: effective
//
compound: CC(C)(CCCCCCCCCCCCCCCO)CC(=O)O
observed.result: effective
//
compound: CC(C)(CCCCCCCCCCCCC(C)(C)CC(=O)O)CC(=O)O
observed.result: Highly effective
//
compound: CC(C)(CCCCCCCCCCCCCCO)C(=O)O
observed.result: effective
//
compound: CC(C)(CCCCCCCCCCCCO)CCC(=O)O
observed.result: effective
//
compound: O=C(O)CCCCCCCCCCCCCCCO [16-hydroxy-hexadecanoic acid]
observed.result: effective

====

- system.under.test: HNF-4α (Rattus norvegicus)
- Sequence (P22449 1-464 isoform P22449-2): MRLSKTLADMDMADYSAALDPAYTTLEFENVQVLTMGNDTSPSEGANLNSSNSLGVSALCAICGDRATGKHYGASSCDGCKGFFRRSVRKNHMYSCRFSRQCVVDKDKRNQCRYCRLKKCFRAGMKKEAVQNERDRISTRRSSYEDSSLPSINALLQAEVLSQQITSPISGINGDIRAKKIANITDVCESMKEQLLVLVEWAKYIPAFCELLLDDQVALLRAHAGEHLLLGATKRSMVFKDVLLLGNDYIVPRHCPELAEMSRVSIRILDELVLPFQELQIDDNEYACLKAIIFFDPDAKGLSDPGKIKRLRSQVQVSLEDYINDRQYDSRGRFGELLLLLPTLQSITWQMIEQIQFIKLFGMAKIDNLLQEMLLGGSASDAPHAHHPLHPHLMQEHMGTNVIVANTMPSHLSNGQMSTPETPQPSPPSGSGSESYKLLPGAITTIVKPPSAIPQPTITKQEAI
- assay.notes: Transfection assay: COS-7 cells cotransfected with (C3P)3-TK-CAT reporter and pSG5-HNF-4α
- Assay type: cell-based
- Parameters: expressed in transfected cells; host or cells: COS-7
- cond: proligands added to culture medium of COS-7 cells (FIG. 4b); read-out: EC50 of HNF-4α suppression (CAT activity)
measurement.kind: EC50 (µM)

molecule: CC(C)(CCCCCCCCCCC(C)(C)CCC(=O)O)CCC(=O)O
unit.abbreviation: µM
bound.type: =
observed.result: 150

molecule: CC(C)(CCCCCCCCCCC(C)(C)CC(=O)O)CC(=O)O
unit.abbreviation: µM
bound.type: =
observed.result: 155

molecule: CC(C)(CCCCCCCCC(C)(C)CC(=O)O)CC(=O)O
unit.abbreviation: µM
bound.type: >
observed.result: 300

molecule: CC(C)(CCCCCCCCCCCCC(C)(C)CC(=O)O)CC(=O)O
unit.abbreviation: µM
bound.type: =
observed.result: 150

molecule: COc1ccc2c(c1)c(CC(=O)O)c(C)n2C(=O)c1ccc(Cl)cc1 [Indomethacine, reference compound]
unit.abbreviation: µM
bound.type: =
observed.result: 130

====

- system.under.test: HNF-4α (Rattus norvegicus, UniProt P22449)
- Construct: GST-HNF-4α(LBD) fusion protein consisting of amino acids 96-455 of wild type HNF-4α fused to GST; fused on or other part: Glutathione-S-transferase (GST) at the N-terminus of the LBD construct; 6-histidine tag on the full-length construct
- assay.notes: Ligand binding assay with [3H]palmitoyl(16:0)-CoA on recombinant GST-HNF-4α(LBD) or His-HNF-4α
- cond: competition with 8 nM [3H]palmitoyl(16:0)-CoA; GST-HNF-4α(LBD) or His-HNF-4α; read-out: EC50 (50% specific competition)
pEC50: −log10 of the molar value.

molecule: CC/C=C\C/C=C\C/C=C\C/C=C\C/C=C\CCCC(=O)SCCNC(=O)CCNC(=O)[C@H](O)C(C)(C)COP(=O)(O)OP(=O)(O)OC[C@H]1O[C@@H](n2cnc3c(N)ncnc32)[C@H](O)[C@@H]1OP(=O)(O)O [Eicosapentaenoyl(20:5)-CoA]
system.under.test: HNF-4α (Rattus norvegicus, UniProt P22449)
pEC50: 6.22
--
molecule: CC(C)Cc1ccc(C(C)C(=O)O)cc1 (stereo not shown) [Ibuprofen, reference compound]
system.under.test: HNF-4α (Rattus norvegicus, UniProt P22449)
pEC50: 4.40
--
molecule: CCCCCCCCCCCCCCCCCC(=O)SCCNC(=O)CCNC(=O)[C@H](O)C(C)(C)COP(=O)(O)OP(=O)(O)OC[C@H]1O[C@@H](n2cnc3c(N)ncnc32)[C@H](O)[C@@H]1OP(=O)(O)O [Stearoyl(18:0)-CoA]
system.under.test: HNF-4α (Rattus norvegicus, UniProt P22449)
pEC50: 5.57
--
molecule: CCCCCCCCCCCC(=O)SCCNC(=O)CCNC(=O)[C@H](O)C(C)(C)COP(=O)(O)OP(=O)(O)OC[C@H]1O[C@@H](n2cnc3c(N)ncnc32)[C@H](O)[C@@H]1OP(=O)(O)O [Dodecanoyl(12:0)-CoA, reference compound]
system.under.test: HNF-4α (Rattus norvegicus, UniProt P22449)
pEC50: 5.64
